Assay: AP1 Signaling Pathway (AID 357);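 also: ME-180 reporter cells stimulated with EGF at its EC50 level; % is scaled to controls: 0 for no effect and ±100 for the full control effect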
Conditions: ME-180 (cervical carcinoma) AP-1-bla reporter, EGF-induced, beta-lactamase ratio, 5 h; at 7.69 µM (top of the series) unless noted
Inconclusive results are not listed. Calls of active or inactive are those of the source. Calls follow the shape of the dose curve; as a rule, active = well fitted curve in either direction with a large enough effect (not every such curve was filed as active); inconclusive = small, poorly fitted or top-dose-only effect, or another doubt; inactive = flat fitted curve, though single readings scatter.
Reported values of activity change, negative = inhibition for individual entries

Cn1cccc1C(=O)N1CCC2(CCN(C(=O)Nc3ccccc3)CC2)CC1 : -3.67% (inactive)
COCCn1c(=O)c(-c2ccc(F)c(F)c2)nc2cncnc21 : -26.5% (inactive)
Cn1cccc1C(=O)N1CCC2(CCCN(c3ccc(-c4ccccc4)cc3)C2)CC1 : 15.7% (inactive)
CC(=O)N1CCC2(CCN(Cc3ccc(C#N)cc3)CC2)CC1 : -3.09% (inactive)
CC(C)NC(=O)N1CC[C@@]2(CCCN(C(=O)c3cnccn3)C2)C1 : 7.64% (inactive)
O=C(c1cnccn1)N1CCC2(CC1)CN(c1ncccn1)C2 : -12.2% (inactive)
Cc1noc(C)c1-c1nccc(Nc2ccc(F)cc2)n1 : -22.4% (inactive)
COc1cccc(Cn2c(=O)cnc3cnc(N4CCN(C)CC4)nc32)c1 : -3.06% (inactive)
COC(=O)N1CCC2(CCN(C(=O)Nc3cccc(C#N)c3)CC2)CC1 : -20.7% (inactive)
O=C(c1ccco1)N1CCC2(CCCN(c3cccc(-c4ccccc4)c3)C2)CC1 : 12.9% (inactive)

Entry "Clc1ccccc1-c1nccc(NCc2ccccc2)n1" : reported activity change, negative = inhibition = ?
12.5% (inactive)

Try the compound "COc1ccc(C[C@@H]2c3cc(OC)c(OC)cc3CC[N@+]2(C)CCC(=O)OCCCCCOC(=O)CC[N@@+]2(C)CCc3cc(OC)c(OC)cc3[C@H]2Cc2ccc(OC)c(OC)c2)cc1OC"
-6.73% [at 17.2 µM] (inactive)

Try the compound "CS(=O)(=O)Nc1cccc(-c2nc(NCc3ccccc3)c3ccccc3n2)c1"
-10.8% (inactive)

Try the compound "COc1ccc(CNc2ccnc(-c3c(C)noc3C)n2)c(OC)c1"
11.5% (inactive)

Try the compound "CN[C@@H](CC(C)C)C(=O)N[C@@H]1C(=O)N[C@H](CC(N)=O)C(=O)N[C@@H]2C(=O)N[C@H]3C(=O)N[C@H](C(=O)N[C@H](C(=O)O)c4cc(O)cc(O)c4-c4cc3ccc4O)[C@H](O)c3ccc(c(Cl)c3)Oc3cc2cc(c3O[C@H]2O[C@@H](CO)[C@@H](O)[C@@H](O)[C@@H]2O[C@@H]2C[C@](C)(N)[C@H](O)[C@H](C)O2)Oc2ccc(cc2Cl)[C@@H]1O"
4.27% [at 17.2 µM] (inactive)

Try the compound "N#Cc1cccc(NC(=O)N2CCC3(CC2)CCN(C(=O)c2cccc(F)c2)CC3)c1"
-11.8% (inactive)

Try the compound "COc1ccccc1CNc1ccnc(-c2ccc(N(C)C)cc2)n1"
-10.1% (inactive)

Try the compound "COc1ncc2nc(CCc3ccccc3)c(=O)n(CCc3ccccc3)c2n1"
-0.194% (inactive)
